Assign Ratio to each entry below.
- Species on record: Rattus norvegicus
- methodDescription: Ratio of the binding affinities against rat A3 receptor / human A3 receptor, Ki(rA1) / Ki (hA3).

# annotated cases, reported Ratio shown
CCCc1c(C(=O)SCC)c(CC)nc(-c2ccccc2)c1C(=O)OCCCF: 53
CCCOC(=O)c1c(-c2ccccc2)nc(CC)c(C(=O)SCC)c1CC: 22
CCCOC(=O)c1c(CCC)c(C(=O)SCC)c(CC)[n+](C)c1-c1ccccc1: 2.1
CCCOC(=O)c1c(-c2ccccc2)nc(CCF)c(C(=O)SCC)c1CCC: < 1
CCSC(=O)c1c(CC)nc(-c2ccccc2)c(C(=O)OCCF)c1CC: 140
CCCOC(=O)c1c(-c2ccccc2)nc(CC)c(C(=O)SCC(F)(F)F)c1CCC: 27
CCOC(=O)c1c(-c2ccccc2)nc(CC)c(C(=O)SCC)c1CC: 21
CCCOC(=O)c1c(-c2ccccc2)nc(CC)c(C(=O)SCC)c1CCC: 6
CCCOC(=O)c1c(-c2ccccc2)nc(CC)c(C(=O)SCC)c1CCCF: 15

// below: Ratio requested for another compound
Request: For the compound `CCCOC(=O)c1c(-c2ccccc2)nc(CC)c(C(=O)SCCCF)c1CCC` , give its reported Ratio.
Result: 1.9

Data provenance: ChEMBL document CHEMBL1132588
